System: Trichoderma virens ATCC 9645
measurement_description: growth yield (OD600) relative to untreated control; higher = less growth inhibition
condition_summary: compound concentration: 100 uM; 40 h
Structures can show the parent of a compound that is named as a salt. In all, about 1,300 compounds went through this assay and about 75 (6%) showed an effect of 50% or more. This is one part of a sample in which strong results are shown more often than they occur.
measurement_kind: growth yield (%)
Dear colleague, please return just the value in %, with no unit written.

NC(=O)OCCCc1ccccc1 [Phenprobamate]; 104
CNCC(O)c1ccc(O)cc1 (racemic) [(+,-)-Synephrine]; 105
CCN(CC)C(C)C(=O)c1ccccc1 (stereo unspecified) [Amfepramone hydrochloride]; 102
CCC(=O)O[C@@](Cc1ccccc1)(c1ccccc1)[C@@H](C)CN(C)C [Levopropoxyphene napsylate]; 106
O=C(CCCN1CCC(n2c(=O)[nH]c3ccccc32)CC1)c1ccc(F)cc1; 102

Now let's try a different one.
// query growth yield value for entry CN[C@@H]1[C@@H](O)[C@@H](O[C@@H]2[C@@H](O)[C@H](O[C@H]3O[C@H](CN)CC[C@H]3N)[C@@H](N)C[C@H]2N)OC[C@]1(C)O.CN[C@@H]1[C@@H](O)[C@@H](O[C@@H]2[C@@H](O)[C@H](O[C@H]3O[C@H]([C@@H](C)N)CC[C@H]3N)[C@@H](N)C[C@H]2N)OC[C@]1(C)O.CN[C@@H]1[C@@H](O)[C@@H](O[C@@H]2[C@@H](O)[C@H](O[C@H]3O[C@H]([C@@H](C)NC)CC[C@H]3N)[C@@H](N)C[C@H]2N)OC[C@]1(C)O [Gentamicine sulfate]
101

* * *

Here the recorded growth yield is given for each entry.
Test system: Trichoderma virens ATCC 9645
measurement_description: growth yield (OD600) relative to untreated control; higher = less growth inhibition
condition_summary: compound concentration: 100 uM; 40 h
Structures can show the parent of a compound that is named as a salt. In all, about 1,300 compounds went through this assay and about 75 (6%) showed an effect of 50% or more. The full list was thinned out, with strong results kept by preference.
Dear colleague, please return just the value in %, with no unit written.

// below: answered compounds
NCC(CC(=O)O)c1ccc(Cl)cc1 (racemic) [Baclofen (R,S)]; 105
C#CCN(C)[C@H](C)Cc1ccccc1 [Selegiline hydrochloride]; 102
C[C@@H]1C[C@@H]([C@H](O)CC2CC(=O)NC(=O)C2)C(=O)[C@@H](C)C1 [Cycloheximide]; 46.7
CCCC(C)C1(CC)C(=O)NC(=O)NC1=O (stereo not given) [Pentobarbital]; 101

Now let's try a different one.
// query growth yield value for entry CC(=O)OCC1=C(C(=O)O)N2C(=O)[C@@H](N)[C@H]2SC1 [Cephalosporanic acid, 7-amino]
105

* * *

Tested on: Trichoderma virens ATCC 9645
measurement_description: growth yield (OD600) relative to untreated control; higher = less growth inhibition
condition_summary: compound concentration: 100 uM; 72 h
Counter-ions that a name gives are not always drawn. The campaign covered roughly 1,300 compounds. About 75 (6%) showed an effect of 50% or more. The full list was thinned out, with strong results kept by preference.
Here the recorded growth yield is given for each entry.
Dear colleague, please return just the value in %, with no unit written.

// below: answered molecules
O=C(CCCN1CCC(n2c(=O)[nH]c3ccccc32)CC1)c1ccc(F)cc1; 99.9
Oc1cc(Cl)ccc1Oc1ccc(Cl)cc1Cl; 3.25
CCC(=O)O[C@@](Cc1ccccc1)(c1ccccc1)[C@@H](C)CN(C)C [Levopropoxyphene napsylate]; 103
O=C([O-])c1ccccc1-c1c2cc(Br)c(=O)cc-2oc2[c]([Hg+])c([O-])c(Br)cc12.[Na+].[Na+].[OH-]; 2.2
CCNCC(O)c1cccc(O)c1 (centres undefined) [Etilefrine hydrochloride]; 103
CC1OC(OC2/C=C/C=C/C=C/C=C/CC/C=C/C=C/[C@H](C)[C@@H](O)[C@@H](C)[C@H](C)OC(=O)CC(O)CC(O)CC(O)CCC(O)C(O)C[C@]3(O)CC(O)C(C(=O)O)C(C2)O3)C(O)C(N)C1O (some centres undefined); 107
NCC(CC(=O)O)c1ccc(Cl)cc1 (racemic) [Baclofen (R,S)]; 105
CN[C@@H]1[C@@H](O)[C@@H](O[C@@H]2[C@@H](O)[C@H](O[C@H]3O[C@H](CN)CC[C@H]3N)[C@@H](N)C[C@H]2N)OC[C@]1(C)O.CN[C@@H]1[C@@H](O)[C@@H](O[C@@H]2[C@@H](O)[C@H](O[C@H]3O[C@H]([C@@H](C)N)CC[C@H]3N)[C@@H](N)C[C@H]2N)OC[C@]1(C)O.CN[C@@H]1[C@@H](O)[C@@H](O[C@@H]2[C@@H](O)[C@H](O[C@H]3O[C@H]([C@@H](C)NC)CC[C@H]3N)[C@@H](N)C[C@H]2N)OC[C@]1(C)O [Gentamicine sulfate]; 97.3
C=CCC1(CC(C)C)C(=O)NC(=O)NC1=O; 96.5
COc1cccc(C2(O)CCCCC2CN(C)C)c1 (centres undefined) [Tramadol hydrochloride]; 99.8

Now let's try a different one.
// query growth yield value for entry CCCC(C)C1(CC)C(=O)NC(=O)NC1=O (centres undefined)
102
